Collected yeast fitness (ln) values appear next to each entry.
B1: tRNA (parent)
chain: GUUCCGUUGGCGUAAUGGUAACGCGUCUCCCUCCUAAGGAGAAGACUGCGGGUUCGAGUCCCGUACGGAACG

Variants of: B1
Test: yeast fitness, log relative to wild type (ln ratio); higher = fitter; tRNA-Arg(CCU), competitive growth, 37 C, 1 M NaCl
recordedMetric: yeast fitness (ln)

1. U2G A43C C46U A70G C71U ... -0.149
2. G1A A43C C46U A69G A70U ... -0.0688
3. U2C A43C C46U C66U C71U ... -0.19
4. U2G C27U A43C C46U A70U C71U ... -0.0906
5. G6A A43C C66U A69G A70U ... -0.3
6. G1A G6U C66A A70G C71U ... -0.0373
7. C46U A70G C71U ... -0.0663
8. G1A ... -0.0233
9. G6A A43C C46U A70U ... -0.117
10. G6U C27U A43C C66A A70G ... -0.293
11. G1A G6A C27U A43C C66U A70U ... -0.304
12. G1A U2C G6U C27U C46U A70G ... -0.129
13. U2G A43C C46U C66U C71U ... -0.2
14. G6A A43C C46U C66U C71U ... -0.12
15. U2G C27U A70G ... -0.136
16. C46U C66U C71U ... -0.0591
17. G1A U2G G6A C27U C66U A70G ... -0.349
18. U2G G6A C46U C66U A69G C71U ... -0.155
19. G1A U2C A43C A69G C71U ... -0.202
20. U2G G6A C46U A69G ... -0.183
21. G1A A43C C66A A69G A70U C71U ... -0.257
22. U2C G6U C66A A69G A70G ... -0.0222
